- Test system: LDB3-1
- PROTOCOL DETAILS: Holdup assay, LDB3-1
- Assay type: binding, human
*1 amine or outer side, *2 acyl side, *3 side chain or, on linkers, in order; H or OH if unused. Where a SMILES comes first, the peptide text is derived from it. The star is where a group is joined. X1 = O=C(CCCC[C@@H]1SC[C@@H]2NC(=O)N[C@@H]21)NCCCOCCOCCOCCCN*; Suc = O=C(CCC(=O)[*:2])[*:1]
MEASURED PARAMETER: BI
Could you keep your reply to the number by itself?

Answered cases to consult:
[
  {
    "MOLECULE": "CC[C@H](C)[C@H](NC(=O)[C@H](CCC(N)=O)NC(=O)[C@@H](NC(=O)[C@H](Cc1c[nH]cn1)NC(=O)[C@H](CCC(N)=O)NC(=O)[C@H](CC(=O)O)NC(=O)[C@H](CCC(=O)O)NC(=O)[C@H](CC(=O)O)NC(=O)CCC(=O)NCCCOCCOCCOCCCNC(=O)CCCC[C@@H]1SC[C@@H]2NC(=O)N[C@@H]21)[C@@H](C)O)C(=O)N[C@H](C(=O)N[C@@H](CCCNC(=N)N)C(=O)N[C@H](C(=O)O)C(C)C)[C@@H](C)O [PTEN_KR] ({X1-Suc}-DEDQHTQITRV-OH)",
    "SYSTEM NAME": "LDB3-1",
    "RECORDED VALUE": -0.05
  },
  {
    "MOLECULE": "CC[C@H](C)[C@H](NC(=O)[C@H](CCC(N)=O)NC(=O)[C@@H](NC(=O)[C@H](Cc1c[nH]cn1)NC(=O)[C@H](CCC(N)=O)NC(=O)[C@H](CC(=O)O)NC(=O)[C@H](CCC(=O)O)NC(=O)[C@H](CC(=O)O)NC(=O)CCC(=O)NCCCOCCOCCOCCCNC(=O)CCCC[C@@H]1SC[C@@H]2NC(=O)N[C@@H]21)[C@@H](C)O)C(=O)N[C@H](C(=O)N[C@@H](CCCCN)C(=O)N[C@H](C(=O)O)C(C)C)[C@@H](C)O",
    "SYSTEM NAME": "LDB3-1",
    "RECORDED VALUE": -0.027
  },
  {
    "MOLECULE": "CC[C@H](C)[C@H](NC(=O)[C@H](CCC(N)=O)NC(=O)[C@@H](NC(=O)[C@H](Cc1c[nH]cn1)NC(=O)[C@H](CCC(N)=O)NC(=O)[C@H](CC(=O)O)NC(=O)[C@H](CCC(=O)O)NC(=O)[C@H](CC(=O)O)NC(=O)[C@H](Cc1ccccc1)NC(=O)[C@@H]1CCCN1C(=O)CCC(=O)NCCCOCCOCCOCCCNC(=O)CCCC[C@@H]1SC[C@@H]2NC(=O)N[C@@H]21)[C@@H](C)O)C(=O)N[C@H](C(=O)N[C@@H](CCCCN)C(=O)N[C@H](C(=O)O)C(C)C)[C@@H](C)O [PTEN_13] ({X1-Suc}-PFDEDQHTQITKV-OH)",
    "SYSTEM NAME": "LDB3-1",
    "RECORDED VALUE": -0.021
  }
]

Now for another entry.
**Q:** So what does the record say about BI for `CC[C@H](C)[C@H](NC(=O)[C@H](CCC(N)=O)NC(=O)[C@@H](NC(=O)[C@H](Cc1c[nH]cn1)NC(=O)[C@H](CCC(N)=O)NC(=O)[C@H](CC(=O)O)NC(=O)[C@H](CCC(=O)O)NC(=O)[C@H](CC(=O)O)NC(=O)CCC(=O)NCCCOCCOCCOCCCNC(=O)CCCC[C@@H]1SC[C@@H]2NC(=O)N[C@@H]21)[C@@H](C)O)C(=O)N[C@H](C(=O)N[C@@H](CCCCNC(C)=O)C(=O)N[C@H](C(=O)O)C(C)C)[C@@H](C)O` ?
**A:** -0.04
